run description: protein stability index of a GFP-peptide fusion (GPS, HEK-293T) (PSI 1-6); higher = more stable;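 further: 24-mer peptide tiles fused after GFP, lentivirally expressed, FACS-sorted into six equal bins by GFP/DsRed ratio, decoded by Illumina sequencing, PSI is the read-weighted mean bin number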
cond: treatment: DMSO; c terminus: a fixed tail appended
Lab note: anything with protein stability index at or over 4 counts as criterion met; the rest go in criterion not met.

Example results:
# biosequence, assigned category
measured = [
    ("SEKSQREDEEEEEGENYQKGERGE [CHGB]", "criterion met"),
    ("KEEAGAPGGGAGMAAGFPYALRAY [CEBPB]", "criterion not met"),
    ("FPLLPDHATALVEAFRLKQQLHAR [PPEF2]", "criterion not met"),
    ("GCWATDAAPAAGLCGAGSEPSIAP [RSPH3]", "criterion met"),
    ("LSLCICGTAITSQYLAERYKVNTP [SLC35F2]", "criterion not met"),
]

protein stability index >= 4 for PSDLDSTGNSLNEPEEPSEIPERR [DLC1] ?
criterion met

protein stability index >= 4 for VQRKSDFDQTVFQEVFEPPHYELC [NETO1] ?
criterion not met

---

run description: protein stability index of a GFP-peptide fusion (GPS, HEK-293T) (PSI 1-6); higher = more stable
cond: treatment: MLN4924 1 uM, 8 h; c terminus: a fixed tail appended
quantity: protein stability index
Respond with the number and no other words.

Worked examples follow.
# biosequence, protein stability index
records = [
    ("RIRSQIGNTESELKKLAEENPDLQ [GDAP1]", 5.39),
    ("IKEVVEKREACHCEEVKMTVASEA [FAN1]", 4.95),
    ("DVNDNSPELTITSLFSPVTEDSPL [PCDHGA10]", 4.65),
]

Using the record for RNLGKVVHYAKVQLRFQHSQDVSD [PLEKHN1] , report its protein stability index.
2.6

Using the record for ATSESTTVEPGKLDVGATEGQDLQ [DRICH1] , report its protein stability index.
5.5

Using the record for DLLPVWLLEDMRASEAFHWDERGR [ANKRD9] , report its protein stability index.
2.87

Using the record for MCFGPKKVKPAEAETAGAIMAFFL [SLC29A1] , report its protein stability index.
2.13

Using the record for HYIAGAHGNEVLGRELLLLLVQFV [CPXM2] , report its protein stability index.
2.22

Using the record for IMATLGFGDSPKAEKRQIGDQEGP [FBF1] , report its protein stability index.
4.3

Using the record for VISCEFAHNSNWYITFQSDTDAQQ [LARP4] , report its protein stability index.
2.56

Using the record for TPLTEGSEDLDGHSDPEESFARDL [RETREG3] , report its protein stability index.
5.52

---

run description: protein stability index of a GFP-peptide fusion (GPS, HEK-293T) (PSI 1-6); higher = more stable
cond: treatment: DMSO; c terminus: native
quantity: protein stability index
Respond with the number and no other words.

# biosequence, result
measured = [
    ("LIPRTMADQQARRQERKPKDRRK [NFE2L1]", 5.32),
]

Using the record for GLMSFIGNRNKLGYSLARGSIGF [TPRG1] , report its protein stability index.
2.67

Using the record for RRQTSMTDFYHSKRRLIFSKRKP [CDKN1A] , report its protein stability index.
3.33

---

run description: protein stability index of a GFP-peptide fusion (GPS, HEK-293T) (PSI 1-6); higher = more stable
cond: treatment: MLN4924 1 uM, 8 h; c terminus: a fixed tail appended
Recorded protein stability index values for a group of sequences are listed next.

Worked examples follow.
# biosequence, result
data = [
    ("GSELRDFPGRPMGHLSKDVDENDS [DLC1]", 5.51),
    ("GLDSISHDSANCELPLLTPCSKAV [ETS2]", 4.55),
    ("GGCTVGVAGEGVRRKGEMGLSAED [TRIM15]", 5.21),
    ("RSRGASQKKQKLEQKAAGSASAKR [FATE1]", 5.06),
    ("RLNFQTPGMASHPPIPILELADHI [PTPRD]", 3.08),
    ("LQRLRENAAHLGDKRRDLAHLAAE [TRIM39]", 3.82),
    ("FPLLPDHATALVEAFRLKQQLHAR [PPEF2]", 2.79),
    ("STFASLIGPFGGFFASGFKRAFKI [CDS2]", 2.37),
]

Using the record for LFENSLCRLTHIPAYKVSGDKNEE [ZER1] , report its protein stability index.
4.04

Using the record for MASPPRCSPTAHDRECKLPPPSAP [WDR88] , report its protein stability index.
4.83

Using the record for EALGHMFMYFLRGSLPWQGLKADT [CSNK1G1] , report its protein stability index.
3.19
